target_desc: T1, A*01/LTD peptide on A*01/LTD (human)
T1 peptide: LTDEMIAQY
procedure_summary: activation reporter or marker
result_type: binding result

1. 11155 (TCR) alpha TRAV16 TRAJ37 CDR3: CALNSNTGKLIF beta TRBV27 TRBJ2-1 CDR3: CASSSFLLAGGGGNSNEQFF : recognises
2. 5469 (TCR) alpha TRAV12-2 TRAJ53 CDR3: CAVNWGGGSNYKLTF beta TRBV29-1 TRBJ2-7 CDR3: CSVGQGWPYEQYF : recognises
3. 2495 (TCR) alpha TRAV19 TRAJ23 CDR3: CALRIYNQGGKLIF beta TRBV5-1 TRBJ2-1 CDR3: CASSTGLAGMSSYNEQFF : recognises
